Tested on: NCI-H522 lung
Assay: NCI-60 one-dose screen, 48 h
Conditions: 10 µM unless noted
The panel holds about 83,000 compounds, 20% with a hit somewhere; the sample as a whole holds those more often. Activity calls are given as the source filed them. How the source made its calls: active means growth percent below 10; inactive means the rest.
Please reply with one of these outcomes: active, inactive

Test call, this compound: Brc1ccc2[nH]cc(-c3nc(-c4c[nH]c5ccncc45)cs3)c2c1 active

Test call, this compound: C/C(=N/NC(N)=S)c1sc(Nc2cccc(Cl)c2)nc1C inactive

Test call, this compound: O=C(CSc1nccc(Nc2ccc(S(=O)(=O)Nc3nccs3)cc2)n1)c1ccc(C(F)(F)F)cc1 inactive

Continuing:
Test call, this compound: CS(=O)(=O)Nc1cc(-c2ccc3ncnc(Nc4cccc(Cl)c4F)c3c2)cnc1Cl inactive

Test call, this compound: COc1cc(C(=O)/C=C/c2ccc(OCCCCCC[P+](c3ccccc3)(c3ccccc3)c3ccccc3)cc2)cc(OC)c1OC active

Test call, this compound: CCN1C(=O)N(CC)C2Nn3c(s/c(=C4\C(=O)N(CCC(C)C)c5ccccc54)c3=O)=NC21 (stereo not drawn) inactive

Test call, this compound: Cc1cc(-c2cc(C)c(N)cc2C)c(C)cc1N inactive

Test call, this compound: Cc1cccc(NCc2cn(-c3ccc(C(=O)O)cc3)nc2-c2ccc(C(=O)O)cc2)n1 inactive
